measurement-target: CYP2C19 (Homo sapiens, UniProt P33261)
Sequence (P33261 whole entry): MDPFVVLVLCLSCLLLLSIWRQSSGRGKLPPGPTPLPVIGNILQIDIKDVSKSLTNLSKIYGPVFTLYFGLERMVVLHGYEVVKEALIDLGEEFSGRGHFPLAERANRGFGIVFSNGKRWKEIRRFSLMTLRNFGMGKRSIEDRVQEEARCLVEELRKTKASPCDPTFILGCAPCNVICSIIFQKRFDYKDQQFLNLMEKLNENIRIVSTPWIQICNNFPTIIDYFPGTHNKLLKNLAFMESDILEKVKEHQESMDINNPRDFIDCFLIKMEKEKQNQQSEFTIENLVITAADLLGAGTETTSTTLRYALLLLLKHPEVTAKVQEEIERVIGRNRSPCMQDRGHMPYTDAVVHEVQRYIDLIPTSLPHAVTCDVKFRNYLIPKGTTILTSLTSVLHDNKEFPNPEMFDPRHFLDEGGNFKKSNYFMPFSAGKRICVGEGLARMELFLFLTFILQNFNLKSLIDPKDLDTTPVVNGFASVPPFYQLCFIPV
assay-procedure: in vitro
experimental-context: human liver microsomes, pH 7.4, probe S-mephenytoin 100 μM (in five-substrate cocktail)
Rule: activity at 15 min, 10 µM of 30% or more gives TRUE; anything lower gives FALSE.

Completed entries (count: 3):
molecule | group-label
N=S(=O)(/C=C/c1cccnc1Cl)c1ccccc1Cl (stereo not shown) | FALSE
O=S(=O)(/C=C/c1ccccn1)c1ccccc1F [reference compound] | TRUE
N=S(=O)(/C=C/c1ccccn1)c1ccccc1F (stereo not shown) | TRUE

Turning to the following molecule.
Q: Is activity at 15 min, 10 µM at least 30%? Consider O=S(=O)(/C=C/c1ncccc1Cl)c1ccccc1F [drawing 157, reference compound]
A: FALSE

* * *

measurement-target: CYP1A2 (Homo sapiens, UniProt P05177)
Sequence (P05177 1-516): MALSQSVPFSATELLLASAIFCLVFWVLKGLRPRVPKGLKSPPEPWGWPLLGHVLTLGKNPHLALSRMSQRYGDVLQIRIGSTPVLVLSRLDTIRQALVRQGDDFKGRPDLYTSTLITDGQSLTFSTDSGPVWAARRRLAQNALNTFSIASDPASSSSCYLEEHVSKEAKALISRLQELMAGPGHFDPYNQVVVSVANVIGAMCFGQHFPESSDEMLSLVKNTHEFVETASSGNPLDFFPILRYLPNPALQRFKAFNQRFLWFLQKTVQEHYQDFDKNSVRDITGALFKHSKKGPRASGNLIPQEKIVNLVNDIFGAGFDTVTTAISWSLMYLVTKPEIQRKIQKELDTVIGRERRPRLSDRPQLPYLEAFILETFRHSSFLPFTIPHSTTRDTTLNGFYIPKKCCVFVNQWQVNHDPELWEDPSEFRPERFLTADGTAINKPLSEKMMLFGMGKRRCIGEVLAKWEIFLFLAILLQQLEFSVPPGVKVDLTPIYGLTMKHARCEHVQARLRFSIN
assay-procedure: in vitro
experimental-context: human liver microsomes, pH 7.4, probe Phenacetin 50 μM (in five-substrate cocktail)
measurement-label: activity at 15 min, 10 µM (%)
State the answer as a number, implicitly in %.

compound | activity at 15 min, 10 µM, %
COc1ccc(S(=N)(=O)/C=C/c2ncccc2Cl)cc1 (stereo not shown) | 103
COc1ccc(S(=N)(=O)/C=C/c2ccccn2)cc1 (stereo not shown) | 88.9
O=S(=O)(/C=C/c1ccccn1)c1ccccc1F [reference compound] | 93
O=S(=O)(/C=C/c1cccnc1Cl)c1ccccc1Cl [reference compound] | 85.6
N=S(=O)(/C=C/c1cccnc1)c1ccccc1Cl (stereo not shown) | 86.8

Q: State measured activity at 15 min, 10 µM of the compound N=S(=O)(/C=C/c1cccnc1Cl)c1ccccc1Cl (stereo not shown) with CYP1A2 (Homo sapiens, UniProt P05177).
A: 93.3

Q: State measured activity at 15 min, 10 µM of the compound O=S(=O)(/C=C/c1cccnc1)c1ccccc1Cl [reference compound] with CYP1A2 (Homo sapiens, UniProt P05177).
A: 84

Q: State measured activity at 15 min, 10 µM of the compound O=S(=O)(/C=C/c1ncccc1Cl)c1ccccc1F [drawing 157, reference compound] with CYP1A2 (Homo sapiens, UniProt P05177).
A: 95.8

Q: State measured activity at 15 min, 10 µM of the compound N=S(=O)(/C=C/c1ccccn1)c1ccccc1F (stereo not shown) with CYP1A2 (Homo sapiens, UniProt P05177).
A: 87.8

Q: State measured activity at 15 min, 10 µM of the compound COc1ccccc1S(=N)(=O)/C=C/c1ncccc1Cl (stereo not shown) with CYP1A2 (Homo sapiens, UniProt P05177).
A: 84.4

* * *

Tested on: BV-2 mouse microglial cells
assay-procedure: NO (nitric oxide) inhibitory activity in LPS-treated microglial cells
Assay type: cell-based
experimental-context: 0.1 μM, LPS 1 μg/ml, 24 hours, read-out: Amount of NO (% of control)
Counter-ions that a name gives are not always drawn.
measurement-label: activity at 0.1 µM (%)
State the answer as a number, implicitly in %.

Solved entries (count: 3):
compound | activity at 0.1 µM / %
COC(=O)/C=C/C(=O)OC [DMF, Dimethyl fumarate, reference compound] | 113
N=S(=O)(/C=C/c1ncccc1F)c1ccccc1F (stereo not shown) | 101
N=S(=O)(/C=C/c1ccccn1)c1ccccc1F (stereo not shown) | 97

Would you kindly look at the next entry?
Q: State measured activity at 0.1 µM of the compound COc1ccc(S(=N)(=O)/C=C/c2ccccn2)cc1 (stereo not shown) with BV-2 mouse microglial cells.
A: 110

* * *

System: BV-2 mouse microglial cells
assay-procedure: NO (nitric oxide) inhibitory activity in LPS-treated microglial cells
Format: cell-based
experimental-context: 1 μM, LPS 1 μg/ml, 24 hours, read-out: Amount of NO (% of control)
Structures can show the parent of a compound that is named as a salt.
# activity at 1 µM per entry
State the answer as a number, implicitly in %.

Solved entries (count: 3):
molecule | activity at 1 µM (%)
COc1ccc(S(=N)(=O)/C=C/c2ccccn2)cc1 (stereo not shown) | 115
N=S(=O)(/C=C/c1ncccc1F)c1ccccc1F (stereo not shown) | 69.2
N=S(=O)(/C=C/c1ccccn1)c1ccccc1F (stereo not shown) | 74.2

Would you kindly look at the next entry?
Q: Return activity at 1 µM (reported value) for this molecule: COC(=O)/C=C/C(=O)OC [DMF, Dimethyl fumarate, reference compound]
A: 60

* * *

measurement-target: UniProt P08684
Sequence (P08684 whole entry): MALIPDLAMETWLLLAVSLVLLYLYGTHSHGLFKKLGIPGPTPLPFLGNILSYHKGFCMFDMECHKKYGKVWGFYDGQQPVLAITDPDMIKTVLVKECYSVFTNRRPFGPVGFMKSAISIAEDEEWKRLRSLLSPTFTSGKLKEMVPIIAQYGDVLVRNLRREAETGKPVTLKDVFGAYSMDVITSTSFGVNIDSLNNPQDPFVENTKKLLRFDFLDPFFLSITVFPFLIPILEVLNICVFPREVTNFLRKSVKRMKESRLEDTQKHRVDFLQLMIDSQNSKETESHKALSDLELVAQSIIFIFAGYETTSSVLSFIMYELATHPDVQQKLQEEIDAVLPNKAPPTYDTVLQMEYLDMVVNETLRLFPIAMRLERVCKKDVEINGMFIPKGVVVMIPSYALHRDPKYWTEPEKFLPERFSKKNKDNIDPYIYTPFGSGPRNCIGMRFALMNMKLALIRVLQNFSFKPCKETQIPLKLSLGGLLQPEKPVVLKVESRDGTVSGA
assay-procedure: in vitro
experimental-context: human liver microsomes, pH 7.4, probe Midazolam […] (in five-substrate cocktail)
measurement-label: activity at 15 min, 10 µM (%)
State the answer as a number, implicitly in %.

Solved entries (count: 4):
compound | activity at 15 min, 10 µM (%)
COc1ccc(S(=N)(=O)/C=C/c2ncccc2Cl)cc1 (centres unmarked) [Compound 1-10] | 109
N=S(=O)(/C=C/c1cccnc1)c1ccccc1Cl (centres unmarked) [Compound 1-12] | 104
O=S(=O)(/C=C/c1ccccn1)c1ccccc1F [reference compound] | 104
COc1ccccc1S(=N)(=O)/C=C/c1ncccc1Cl (centres unmarked) [Compound 1-8] | 78.4

Q: State measured activity at 15 min, 10 µM of the compound O=S(=O)(/C=C/c1ncccc1Cl)c1ccccc1F [drawing 157, reference compound] with UniProt P08684.
A: 105

* * *

measurement-target: CYP2D6 (Homo sapiens, UniProt P10635)
Sequence (P10635 whole entry): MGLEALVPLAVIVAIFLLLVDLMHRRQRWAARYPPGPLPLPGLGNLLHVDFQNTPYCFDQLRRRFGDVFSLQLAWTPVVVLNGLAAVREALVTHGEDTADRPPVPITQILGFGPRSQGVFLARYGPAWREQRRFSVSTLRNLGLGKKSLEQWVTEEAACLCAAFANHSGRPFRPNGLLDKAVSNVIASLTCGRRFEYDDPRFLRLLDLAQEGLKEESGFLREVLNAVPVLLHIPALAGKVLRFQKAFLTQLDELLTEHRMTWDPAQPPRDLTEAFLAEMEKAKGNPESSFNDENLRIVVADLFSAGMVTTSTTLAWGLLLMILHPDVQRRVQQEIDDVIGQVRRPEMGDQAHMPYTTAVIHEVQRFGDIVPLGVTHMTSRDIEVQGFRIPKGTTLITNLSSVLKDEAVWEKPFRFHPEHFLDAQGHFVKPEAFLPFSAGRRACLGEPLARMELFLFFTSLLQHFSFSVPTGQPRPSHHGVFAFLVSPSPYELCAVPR
assay-procedure: in vitro
experimental-context: human liver microsomes, pH 7.4, probe Dextromethorphan 5 μM (in five-substrate cocktail)
measurement-label: activity at 15 min, 10 µM (%)
State the answer as a number, implicitly in %.

Solved entries (count: 9):
compound | activity at 15 min, 10 µM / %
O=S(=O)(/C=C/c1cccnc1)c1ccccc1Cl [reference compound] | 101
N=S(=O)(/C=C/c1cccnc1Cl)c1ccccc1Cl (stereo not shown) | 95.7
O=S(=O)(/C=C/c1ccccn1)c1ccccc1F [reference compound] | 92.4
COc1ccc(S(=N)(=O)/C=C/c2ccccn2)cc1 (stereo not shown) | 98.6
O=S(=O)(/C=C/c1cccnc1Cl)c1ccccc1Cl [reference compound] | 93.8
N=S(=O)(/C=C/c1cccnc1)c1ccccc1Cl (stereo not shown) | 94.4
N=S(=O)(/C=C/c1ccccn1)c1ccccc1F (stereo not shown) | 82.7
O=S(=O)(/C=C/c1ncccc1Cl)c1ccccc1F [drawing 157, reference compound] | 86.1
COc1ccccc1S(=N)(=O)/C=C/c1ncccc1Cl (stereo not shown) | 93.9

Would you kindly look at the next entry?
Q: State measured activity at 15 min, 10 µM of the compound COc1ccc(S(=N)(=O)/C=C/c2ncccc2Cl)cc1 (stereo not shown) with CYP2D6 (Homo sapiens, UniProt P10635).
A: 112

* * *

measurement-target: UniProt P08684
assay-procedure: in vitro
experimental-context: human liver microsomes, pH 7.4, probe Midazolam […] (in five-substrate cocktail)
Rule: activity at 15 min, 10 µM of 70% or more gives met; anything lower gives not met.

Completed entries (count: 4):
compound | measurement-target | group-label
O=S(=O)(/C=C/c1cccnc1)c1ccccc1Cl [reference compound] | UniProt P08684 | met
N=S(=O)(/C=C/c1cccnc1Cl)c1ccccc1Cl (centres unmarked) [Compound 1-13] | UniProt P08684 | not met
COc1ccc(S(=N)(=O)/C=C/c2ccccn2)cc1 (centres unmarked) [Compound 1-2] | UniProt P08684 | met
N=S(=O)(/C=C/c1ccccn1)c1ccccc1F (centres unmarked) [Compound 1-1] | UniProt P08684 | met

Turning to the following compound.
Q: Is activity at 15 min, 10 µM at least 70%? Consider O=S(=O)(/C=C/c1cccnc1Cl)c1ccccc1Cl [reference compound]
A: met

* * *

measurement-target: CYP2C9 (Homo sapiens, UniProt P11712)
Sequence (P11712 whole entry): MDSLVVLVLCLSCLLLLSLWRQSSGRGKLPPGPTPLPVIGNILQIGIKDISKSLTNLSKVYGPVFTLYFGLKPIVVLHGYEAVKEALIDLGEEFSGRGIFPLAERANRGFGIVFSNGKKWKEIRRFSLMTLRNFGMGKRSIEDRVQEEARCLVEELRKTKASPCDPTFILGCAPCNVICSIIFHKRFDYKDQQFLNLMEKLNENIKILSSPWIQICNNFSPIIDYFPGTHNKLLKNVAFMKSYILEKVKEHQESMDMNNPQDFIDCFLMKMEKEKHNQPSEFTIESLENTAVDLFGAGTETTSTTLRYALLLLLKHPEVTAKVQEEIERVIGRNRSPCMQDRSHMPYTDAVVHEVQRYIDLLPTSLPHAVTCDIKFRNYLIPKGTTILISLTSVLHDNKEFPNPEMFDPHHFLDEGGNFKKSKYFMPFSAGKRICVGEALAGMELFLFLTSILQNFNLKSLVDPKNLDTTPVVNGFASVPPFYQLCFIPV
assay-procedure: in vitro
experimental-context: human liver microsomes, pH 7.4, probe Diclofenac 10 μM (in five-substrate cocktail)
measurement-label: activity at 15 min, 10 µM (%)
State the answer as a number, implicitly in %.

Solved entries (count: 4):
molecule | unit-annotation | activity at 15 min, 10 µM
COc1ccc(S(=N)(=O)/C=C/c2ccccn2)cc1 (centres unmarked) | % | 96.6
COc1ccc(S(=N)(=O)/C=C/c2ncccc2Cl)cc1 (centres unmarked) | % | 133
COc1ccc(S(=O)(=O)/C=C/c2ncccc2Cl)cc1 [reference compound] | % | 196
O=S(=O)(/C=C/c1ccccn1)c1ccccc1F [reference compound] | % | 230

Would you kindly look at the next entry?
Q: Return activity at 15 min, 10 µM (reported value) for this molecule: O=S(=O)(/C=C/c1cccnc1)c1ccccc1Cl [reference compound]
A: 118
